target: CFTR G551D mutant (Homo sapiens, UniProt P13569, G551D); construct: expressed in transfected cells; host or cells: HEK293 cells, reverse transfection with plasmids; assay: YFP-halide influx assay for the CFTR-G551D mutation (HEK293 cells); type: cell-based; conditions: forskolin 10.67 μM
Sequence (P13569 whole entry G551D): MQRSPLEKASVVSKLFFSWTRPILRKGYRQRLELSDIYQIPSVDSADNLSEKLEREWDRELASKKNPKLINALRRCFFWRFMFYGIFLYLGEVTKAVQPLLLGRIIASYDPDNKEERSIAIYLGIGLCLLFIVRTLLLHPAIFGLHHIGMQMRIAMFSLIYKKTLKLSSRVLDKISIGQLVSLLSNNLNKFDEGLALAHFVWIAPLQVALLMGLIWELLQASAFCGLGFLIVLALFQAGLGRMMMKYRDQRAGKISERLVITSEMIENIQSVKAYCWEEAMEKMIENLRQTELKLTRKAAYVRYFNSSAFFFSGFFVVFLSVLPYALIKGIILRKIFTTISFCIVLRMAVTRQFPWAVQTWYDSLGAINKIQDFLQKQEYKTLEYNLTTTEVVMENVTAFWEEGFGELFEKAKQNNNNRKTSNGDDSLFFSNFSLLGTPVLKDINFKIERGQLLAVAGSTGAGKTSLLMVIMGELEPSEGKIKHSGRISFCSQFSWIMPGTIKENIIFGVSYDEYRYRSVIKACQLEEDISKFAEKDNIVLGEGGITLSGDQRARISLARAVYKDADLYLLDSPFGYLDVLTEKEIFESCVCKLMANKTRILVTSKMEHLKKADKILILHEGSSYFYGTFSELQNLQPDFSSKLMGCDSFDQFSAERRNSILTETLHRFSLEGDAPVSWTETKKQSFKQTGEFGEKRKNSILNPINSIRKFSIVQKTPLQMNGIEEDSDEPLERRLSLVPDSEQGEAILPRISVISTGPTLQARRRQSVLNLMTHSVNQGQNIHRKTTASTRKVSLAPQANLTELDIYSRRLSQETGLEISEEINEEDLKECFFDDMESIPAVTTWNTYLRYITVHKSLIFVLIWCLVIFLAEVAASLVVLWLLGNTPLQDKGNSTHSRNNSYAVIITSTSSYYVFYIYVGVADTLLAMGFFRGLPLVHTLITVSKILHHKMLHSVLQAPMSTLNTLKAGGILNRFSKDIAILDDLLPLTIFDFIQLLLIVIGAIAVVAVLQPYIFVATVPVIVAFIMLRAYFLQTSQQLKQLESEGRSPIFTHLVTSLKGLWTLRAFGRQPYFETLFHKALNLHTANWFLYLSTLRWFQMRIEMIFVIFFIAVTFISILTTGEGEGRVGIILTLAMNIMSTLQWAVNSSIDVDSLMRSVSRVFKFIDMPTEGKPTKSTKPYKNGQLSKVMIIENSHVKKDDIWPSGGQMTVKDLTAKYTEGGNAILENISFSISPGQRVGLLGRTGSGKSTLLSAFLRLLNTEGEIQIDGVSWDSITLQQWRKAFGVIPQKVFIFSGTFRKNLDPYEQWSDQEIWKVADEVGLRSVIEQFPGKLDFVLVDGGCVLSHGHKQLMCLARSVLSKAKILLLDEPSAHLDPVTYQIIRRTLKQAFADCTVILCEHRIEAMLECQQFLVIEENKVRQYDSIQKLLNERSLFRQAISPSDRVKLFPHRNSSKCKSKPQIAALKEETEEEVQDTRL
MEASUREMENT_LABEL: EC50 (µM)

For orientation, consider the following solved cases.
Cc1ccc(S(=O)(=O)c2cnc(C(=O)NCC(O)C(F)(F)F)c(N)c2)cc1 (centres unmarked) | 0.395
Nc1cc(S(=O)(=O)c2cccc(OC(F)(F)F)c2)cnc1C(=O)NCC(O)C(F)(F)F (centres unmarked) | 0.364
Nc1cc(S(=O)(=O)c2ccc(C(F)(F)F)cc2)cnc1C(=O)NC[C@@H](O)COCC(F)(F)F | 0.385

a: Nc1cc(S(=O)(=O)c2ccc(OC(F)(F)F)cc2)cnc1C(=O)NCC1(O)CCOC1 (centres unmarked)
b: COc1nc(C(=O)NC[C@H](C)O)c(N)cc1S(=O)(=O)c1ccc(OC(F)(F)F)cc1
c: CC(C)NC(=O)CNC(=O)c1ncc(S(=O)(=O)c2ccc(OC(F)(F)F)cc2)cc1N
IN: // sort entries: EC50, high to low Answer by listing the labels in the requested order.
OUT: a, b, c

###

molecular target: CFTR G551D mutant (Homo sapiens, UniProt P13569, G551D); assay: YFP-halide influx assay for the CFTR-G551D mutation (HEK293 cells); settings: forskolin 10.67 μM
MEASUREMENT_LABEL: EC50 (nM)

COCCNC(=O)c1ncc(S(=O)(=O)c2ccc(C(F)(F)F)cc2)cc1N | 1600

A: Nc1cc(S(=O)(=O)c2ccccc2)cnc1C(=O)N1CC(O)(C(F)(F)F)C1
B: Nc1cc(S(=O)(=O)c2ccc(C(F)(F)F)cc2)cnc1C(=O)N1CC(O)(C(F)(F)F)C1
IN: // compare: A vs B , metric EC50, want the smaller Returns: label corresponding to the selected item.
OUT: B
(B: 128 nM, A: 5770 nM)

###

target: CFTR ΔF508 mutant (Homo sapiens, UniProt P13569, DEL508-508); construct: expressed in transfected cells; host or cells: CFBE41o- cells, adenoviral transduction; experiment: YFP-halide influx assay for the CFTR-ΔF508 mutation (CFBE41o- cells); assay type: cell-based; conditions: forskolin 10.67 μM
Sequence (P13569 with tags, fused parts or gaps DEL508-508): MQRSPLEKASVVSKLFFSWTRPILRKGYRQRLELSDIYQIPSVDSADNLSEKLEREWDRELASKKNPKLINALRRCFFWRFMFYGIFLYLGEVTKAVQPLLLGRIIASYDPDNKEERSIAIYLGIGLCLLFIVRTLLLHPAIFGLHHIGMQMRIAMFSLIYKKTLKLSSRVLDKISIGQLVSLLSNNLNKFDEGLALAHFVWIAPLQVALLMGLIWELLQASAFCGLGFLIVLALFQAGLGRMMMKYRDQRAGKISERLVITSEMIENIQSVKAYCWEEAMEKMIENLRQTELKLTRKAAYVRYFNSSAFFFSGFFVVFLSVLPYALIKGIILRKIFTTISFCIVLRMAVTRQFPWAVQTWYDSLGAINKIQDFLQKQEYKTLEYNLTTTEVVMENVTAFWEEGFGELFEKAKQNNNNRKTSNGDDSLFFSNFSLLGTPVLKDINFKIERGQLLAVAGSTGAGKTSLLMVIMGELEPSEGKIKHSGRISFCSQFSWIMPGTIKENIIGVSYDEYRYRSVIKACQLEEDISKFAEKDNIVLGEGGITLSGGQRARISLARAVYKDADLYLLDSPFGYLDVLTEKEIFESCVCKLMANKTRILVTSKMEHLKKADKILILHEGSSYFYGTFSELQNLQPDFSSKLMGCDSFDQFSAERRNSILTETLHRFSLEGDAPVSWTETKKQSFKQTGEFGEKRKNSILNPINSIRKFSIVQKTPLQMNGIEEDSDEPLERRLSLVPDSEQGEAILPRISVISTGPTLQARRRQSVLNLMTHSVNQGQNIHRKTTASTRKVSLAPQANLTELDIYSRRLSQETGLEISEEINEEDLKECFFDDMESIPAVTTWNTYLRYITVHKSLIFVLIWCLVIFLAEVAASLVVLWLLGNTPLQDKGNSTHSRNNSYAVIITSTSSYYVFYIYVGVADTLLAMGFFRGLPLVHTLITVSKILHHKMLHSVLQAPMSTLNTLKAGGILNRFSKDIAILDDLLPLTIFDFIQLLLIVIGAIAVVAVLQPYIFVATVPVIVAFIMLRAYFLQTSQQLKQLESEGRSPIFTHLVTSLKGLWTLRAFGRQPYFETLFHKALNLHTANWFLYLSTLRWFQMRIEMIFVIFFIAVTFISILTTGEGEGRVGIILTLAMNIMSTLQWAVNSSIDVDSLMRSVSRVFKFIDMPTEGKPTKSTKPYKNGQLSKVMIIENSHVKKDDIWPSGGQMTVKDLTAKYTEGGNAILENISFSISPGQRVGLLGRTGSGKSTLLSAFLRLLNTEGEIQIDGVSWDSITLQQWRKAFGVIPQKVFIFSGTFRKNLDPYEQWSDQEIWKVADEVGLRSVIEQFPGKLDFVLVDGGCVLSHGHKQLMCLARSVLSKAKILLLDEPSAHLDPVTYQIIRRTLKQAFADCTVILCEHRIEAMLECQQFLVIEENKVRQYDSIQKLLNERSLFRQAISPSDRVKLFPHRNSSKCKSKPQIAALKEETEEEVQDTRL
MEASUREMENT_LABEL: % Activation (%)

COCC1(C)CN(C(=O)c2ncc(S(=O)(=O)c3ccc(OC(F)(F)F)cc3)cc2N)C1 | 98.1

1: Nc1cc(S(=O)(=O)c2ccc(OC(F)(F)F)cc2)cnc1C(=O)N[C@@H]1CCCOC1
2: Nc1cc(S(=O)(=O)c2ccc(OC(F)(F)F)cc2)cnc1C(=O)NC1(C(F)(F)F)COC1
IN: // compare: 1 vs 2 , metric % Activation, want the smaller Returns: label corresponding to the selected item.
OUT: 2
(2: 60.5%, 1: 97.7%)

###

molecular target: CFTR ΔF508 mutant (Homo sapiens, UniProt P13569, DEL508-508); test: YFP-halide influx assay for the CFTR-ΔF508 mutation (CFBE41o- cells); conditions: forskolin 10.67 μM, from (1−F/F0) vs concentration plot
pEC50: −log10 of the molar value.
MEASUREMENT_LABEL: pEC50

For orientation, consider the following solved cases.
Nc1cc(S(=O)(=O)c2ccc(OC(F)(F)F)cc2)cnc1C(=O)NCC1(CO)CCC1 [Compound 23] | 7.11
Nc1cc(S(=O)(=O)c2ccc(C(F)(F)F)cc2F)cnc1C(=O)NCC(O)COCC1CC1 (centres unmarked) [Compound 132] | 8.29
N#CC1CN(C(=O)c2ncc(S(=O)(=O)c3ccc(OC(F)(F)F)cc3)cc2N)C1 [Compound 61] | 7.22
CC(C)(O)CCNC(=O)c1ncc(S(=O)(=O)c2ccc(OC(F)(F)F)cc2)cc1N [Compound 51] | 7.52
CC(C)NC(=O)CNC(=O)c1ncc(S(=O)(=O)c2ccc(C(F)(F)F)cc2)cc1N [Compound 104] | 7.72

P: Cc1ccc(S(=O)(=O)c2cnc(C(=O)NCC(O)C(F)(F)F)c(N)c2)cc1 (centres unmarked) [Compound 245]
Q: C[C@H](O)CNC(=O)c1ncc(S(=O)(=O)N(C)C2CCC2)cc1N [Compound 278]
IN: API: POST /compare with P and Q ; response names the item with higher pEC50. Returns: label corresponding to the selected item.
OUT: P
(P: 8.25, Q: 7.36)
